Target: hKir2.1 (Homo sapiens, UniProt P63252)
Construct: Eurofins
Sequence (P63252 1-427): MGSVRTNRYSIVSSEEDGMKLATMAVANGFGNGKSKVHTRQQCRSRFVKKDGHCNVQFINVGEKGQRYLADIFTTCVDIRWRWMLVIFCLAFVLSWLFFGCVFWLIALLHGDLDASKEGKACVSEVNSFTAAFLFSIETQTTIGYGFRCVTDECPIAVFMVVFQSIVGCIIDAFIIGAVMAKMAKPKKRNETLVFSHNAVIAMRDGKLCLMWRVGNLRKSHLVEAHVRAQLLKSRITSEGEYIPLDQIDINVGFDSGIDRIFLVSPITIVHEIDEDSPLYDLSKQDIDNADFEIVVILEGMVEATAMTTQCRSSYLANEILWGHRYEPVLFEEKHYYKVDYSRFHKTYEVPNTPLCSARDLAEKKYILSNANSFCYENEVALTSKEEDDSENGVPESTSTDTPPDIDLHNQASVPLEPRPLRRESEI
Test: Patch clamp electrophysiology (QPatch CiPA), hKir2.1
Assay type: cell-based
Details: Antagonist, Peak; read-out: Estimated IC50
Experimental: Replated hiPSC-CMs were loaded with a fluorescent calcium dye and calcium transients were recorded before and after peptide addition.
recorded.metric: pIC50
Note: pIC50 values are expressed as the negative base-10 logarithm of concentration in M.

Looking for the measured pIC50 of [Ba+2].[Cl-].[Cl-] [Barium, Barium Chloride] , can you help?
4.21

----------
Target: hKCNQ1 /mink (Homo sapiens, UniProt P51787)
Construct: Eurofins
Sequence (P51787 whole entry): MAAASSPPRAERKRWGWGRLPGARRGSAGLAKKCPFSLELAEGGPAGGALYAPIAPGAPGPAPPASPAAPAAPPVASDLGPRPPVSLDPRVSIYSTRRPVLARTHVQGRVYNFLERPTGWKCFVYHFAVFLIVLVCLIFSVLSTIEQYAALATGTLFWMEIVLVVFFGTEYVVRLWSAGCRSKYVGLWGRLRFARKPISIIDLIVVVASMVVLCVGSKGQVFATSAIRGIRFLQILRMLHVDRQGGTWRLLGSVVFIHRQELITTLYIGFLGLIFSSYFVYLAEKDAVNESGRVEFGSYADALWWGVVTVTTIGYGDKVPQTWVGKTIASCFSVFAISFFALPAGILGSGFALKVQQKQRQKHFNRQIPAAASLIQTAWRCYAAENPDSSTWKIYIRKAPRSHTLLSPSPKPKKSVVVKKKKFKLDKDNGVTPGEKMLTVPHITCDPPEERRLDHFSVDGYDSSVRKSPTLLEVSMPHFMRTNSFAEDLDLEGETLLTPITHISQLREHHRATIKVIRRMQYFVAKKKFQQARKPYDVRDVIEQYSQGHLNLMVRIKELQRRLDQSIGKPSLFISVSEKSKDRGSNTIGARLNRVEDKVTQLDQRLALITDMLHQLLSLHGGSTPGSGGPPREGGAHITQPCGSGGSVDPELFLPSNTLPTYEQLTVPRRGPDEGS
Assay: Patch clamp electrophysiology (QPatch), hKCNQ1/mink
Settings: read-out: Estimated IC50
recorded.metric: IC50 (µM)
Report only the number, with the unit µM understood.

Looking for the measured IC50 of CCS(=O)(=O)N(C)[C@H]1c2cc(C#N)ccc2OC(C)(C)[C@@H]1O (racemic) [Chromanol 293B] , can you help?
11.5

----------
Biological target: hKv4.3/hKChIP2 (Homo sapiens, UniProt Q9UK17)
Construct: Eurofins
Sequence (Q9UK17 whole entry): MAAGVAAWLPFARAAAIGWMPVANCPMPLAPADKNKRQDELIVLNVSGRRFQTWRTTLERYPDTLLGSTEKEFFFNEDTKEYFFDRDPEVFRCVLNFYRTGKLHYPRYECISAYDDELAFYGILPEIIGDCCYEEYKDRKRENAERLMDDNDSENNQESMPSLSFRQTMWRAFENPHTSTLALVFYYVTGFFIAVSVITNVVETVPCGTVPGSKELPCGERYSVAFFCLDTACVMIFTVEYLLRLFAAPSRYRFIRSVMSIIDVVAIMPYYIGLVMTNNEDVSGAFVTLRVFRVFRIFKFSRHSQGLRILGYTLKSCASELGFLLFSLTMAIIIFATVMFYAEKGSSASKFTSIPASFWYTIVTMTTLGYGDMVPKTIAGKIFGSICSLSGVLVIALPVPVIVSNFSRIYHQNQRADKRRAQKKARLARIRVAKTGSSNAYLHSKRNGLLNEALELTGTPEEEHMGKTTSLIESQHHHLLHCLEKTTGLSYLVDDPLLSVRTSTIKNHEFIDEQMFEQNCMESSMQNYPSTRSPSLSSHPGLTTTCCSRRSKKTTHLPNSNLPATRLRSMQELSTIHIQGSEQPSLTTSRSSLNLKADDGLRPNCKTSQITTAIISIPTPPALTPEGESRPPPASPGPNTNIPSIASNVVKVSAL
Sequence (Q9NS61 whole entry partner): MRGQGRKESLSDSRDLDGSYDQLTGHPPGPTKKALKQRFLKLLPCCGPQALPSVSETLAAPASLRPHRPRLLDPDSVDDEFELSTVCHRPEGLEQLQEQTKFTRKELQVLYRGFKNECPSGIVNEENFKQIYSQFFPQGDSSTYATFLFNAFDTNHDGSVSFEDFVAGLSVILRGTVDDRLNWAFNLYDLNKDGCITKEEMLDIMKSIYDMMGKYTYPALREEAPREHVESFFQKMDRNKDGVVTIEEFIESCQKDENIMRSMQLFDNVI
Test: Patch clamp electrophysiology (QPatch CiPA), hKv4.3/hKChIP2
Type: cell-based
Settings: Antagonist, Peak; read-out: Estimated IC50
recorded.metric: IC50 (µM)
Report only the number, with the unit µM understood.

Looking for the measured IC50 of O=C(NCC1CCCCN1)c1cc(OCC(F)(F)F)ccc1OCC(F)(F)F (stereo not shown) [Flecainide] , can you help?
22.5

----------
Molecular target: hKv4.3/hKChIP2 (Homo sapiens)
Construct: Eurofins
Assay: Patch clamp electrophysiology (QPatch CiPA), hKv4.3/hKChIP2
Assay type: cell-based
Conditions: Antagonist, End; read-out: Estimated IC50
recorded.metric: IC50 (µM)
Report only the number, with the unit µM understood.

Looking for the measured IC50 of O=C(NCC1CCCCN1)c1cc(OCC(F)(F)F)ccc1OCC(F)(F)F (stereo not shown) [Flecainide] , can you help?
10

Provenance of the data: patent US12173322B2
